FYI, the data here is from patent US20250026849A1.

Here the recorded ELISA_avg is given for each entry.
Molecular target: T1, CD123 (Homo sapiens (Human), UniProt P26951 19-305, limits assumed)
T1 construct: The CD123 construct used in the ELISA is not described; also called CD123-Signal
T1 sequence: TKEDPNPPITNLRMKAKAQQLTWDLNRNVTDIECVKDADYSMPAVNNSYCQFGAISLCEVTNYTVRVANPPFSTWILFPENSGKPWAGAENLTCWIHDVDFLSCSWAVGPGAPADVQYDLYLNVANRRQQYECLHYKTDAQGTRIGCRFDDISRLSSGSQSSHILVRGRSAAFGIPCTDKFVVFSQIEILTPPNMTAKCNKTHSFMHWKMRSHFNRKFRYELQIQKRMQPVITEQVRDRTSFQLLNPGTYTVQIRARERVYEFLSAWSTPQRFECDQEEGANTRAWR
Assay: ELISA
Set-up: unit not given here
assay.readout: ELISA_avg

[[record]]
binder = "D domain of SEQ ID NO: 658 (designed binder) MGSWYEFEQRLEAIEWRLGALGGSEAELATFEEDIADFEEWLQEYKGKGNPEVEALQYEAYAIAEELHAYRHN"
assay_readout = "ELISA_avg"
result = 4.4

[[record]]
binder = "D domain of SEQ ID NO: 569 (designed binder) MGSWWEFQFRLYAIDQRLLALGGSEAELAEFEQDIADFEWMLQDYKGKGNPEVEALMLEADAIEAELKAYRHN"
assay_readout = "ELISA_avg"
result = 3.1

[[record]]
binder = "D domain of SEQ ID NO: 416 (designed binder) MGSWFEFQDRLWAIDNRLWALGGSEAELAAFEKEIAAFESELQAYKGKGNPEVEELRDHAAMIRWELQAYRHN"
assay_readout = "ELISA_avg"
result = 3.2

[[record]]
binder = "D domain of SEQ ID NO: 537 (designed binder) MGSWFMFKEELADIKDWLEALGGSEAELASFESYIAWFEQDLQWYKGKGNPEVEALRKEAAAIRDELQAYRHN"
assay_readout = "ELISA_avg"
result = 5.7

[[record]]
binder = "D domain of SEQ ID NO: 548 (designed binder) MGSWGWFKHELAFIKADLEALGGSEAELAWFEEEIAEFEYELQFYKGKGNPEVEALRKEAAAIRDELQAYRHN"
assay_readout = "ELISA_avg"
result = 3.3

